REPORTED PROPERTY: melting point

GET /values?readout=melting point&item= CCOC(=O)CCCN(C(=O)c1cccc(C(F)(F)F)c1)c1ccccc1-c1ccccc1 65 to 67 °C

GET /values?readout=melting point&item= O=C(O)C(O)=Cc1ccc([N+](=O)[O-])s1 192 to 193 °C

GET /values?readout=melting point&item= COc1c(C)c(C)c(OC)c(C(CCCC(=O)O)c2ccccc2)c1C (stereo not given) 142 to 143 °C

GET /values?readout=melting point&item= C=C(CCC)C(=O)c1ccc(OC2(C(=O)O)CCC2)c(Cl)c1Cl 105 to 106 °C

GET /values?readout=melting point&item= COC(=O)Cc1cc2c(c([N+](=O)[O-])c1)NCC2 113 to 115 °C

GET /values?readout=melting point&item= C[C@@H](N(CCO)C(=O)c1ccc(C(F)(F)F)cc1)[C@](O)(Cn1cncn1)c1ccc(Cl)cc1Cl (relative stereo) 185 to 189 °C

* * *

Quick reference: melting point of the listed items.

Sample answers from the record:
1) CCOC(=O)C1(Oc2ccc(O)cc2)CCC1 = 118 to 120 °C
2) CC(C)CCOc1cccc2oc(C(=O)O)cc(=O)c12 = 179 to 180 °C
3) CC(=O)C1=C(C)NC(C)=C(c2nc(CN(C)Cc3ccccc3)no2)C1c1cccc([N+](=O)[O-])c1 (stereo not given) = 138 to 139 °C
4) O=S(=O)(Nc1cccnc1Cl)C(F)(F)F = 120 to 122 °C
5) CC(=O)Nc1ncc(-c2cccc3ccccc23)o1 = 188 to 190 °C
6) O=C1c2ccccc2-n2c(nc3ccccc3c2=O)CN1CCc1ccccc1 = 208 to 210 °C

GET /values?readout=melting point&item= CC(C)c1ccc(N(Cc2cnn(CCO)c2)C(=O)C2CCCc3c(O)cccc32)cc1 (stereo not given) 110 to 114 °C

GET /values?readout=melting point&item= CON=C[C@H]1NC(=O)[C@H]1NC(=O)OCc1ccccc1 170 to 171 °C

GET /values?readout=melting point&item= COCc1cc2c(s1)CCCc1cc(=O)n(-c3ccc(OC)cc3)nc1-2 115 to 117 °C

GET /values?readout=melting point&item= Cc1cccc(C)c1NC(=O)c1ccc([N+](=O)[O-])cc1 212 to 215 °C

* * *

Quick reference: melting point of the listed items.

1. Cc1ccc(Cl)c(-c2ccc(S(=O)(=O)N3c4ccccc4CC3C(=O)NCCOc3ccc(CC(=O)O)cc3)cc2)c1 (stereo not given) = 77 to 81 °C
2. COC(=O)C1COc2ccccc2C1 (stereo not given) = 83 to 84 °C
3. Cc1cc(C)c2cccc(OCc3c(Cl)ccc(S(=O)(=O)N4CCC[C@H]4C(=O)NCCCNC(=O)Cc4ccc(C=NN)cc4)c3Cl)c2n1 = 184 to 188 °C
4. C[C@H](NS(=O)(=O)c1ccc2ccccc2c1)C(=O)Cl = 134 to 136 °C
5. N=C(N)c1ccc2[nH]cc(CCN3C(=O)c4ccccc4C3=O)c2c1 = 206 to 209 °C
6. CCCC(=O)c1cnc2c(CO)cccc2c1Nc1ccccc1C = 148 to 150 °C
7. O=C(O)c1ccc(OC(=O)c2ccc(O)c(C34CC5CC(CC(C5)C3)C4)c2)cc1 = 269 to 271 °C
8. Fc1ccc2c(c1)nc(Cl)c1nncn12 = 305 to 308 °C
9. O=S1CCON=C1c1nc2ccccc2s1 (stereo not given) = 192 to 195 °C
10. C=CCc1cc(Cc2cnc(N)nc2N)c2cccnc2c1OC = 227 to 228 °C

Field: next molecule
GET /values?readout=melting point&item= Nc1cccc(C2=NNC(=O)Cc3cc4c(cc32)OCO4)c1 118 to 122 °C
